All figures here come from patent US20140056907A1.

Target: T1, mouse ASIC1a (mouse, UniProt Q6NXK8 1-526)
T1 construct: whole, on cells; Expressed on stably transfected 3T3 cells (3T3/mASIC1a); also called mASIC1a
T1 sequence (looked up): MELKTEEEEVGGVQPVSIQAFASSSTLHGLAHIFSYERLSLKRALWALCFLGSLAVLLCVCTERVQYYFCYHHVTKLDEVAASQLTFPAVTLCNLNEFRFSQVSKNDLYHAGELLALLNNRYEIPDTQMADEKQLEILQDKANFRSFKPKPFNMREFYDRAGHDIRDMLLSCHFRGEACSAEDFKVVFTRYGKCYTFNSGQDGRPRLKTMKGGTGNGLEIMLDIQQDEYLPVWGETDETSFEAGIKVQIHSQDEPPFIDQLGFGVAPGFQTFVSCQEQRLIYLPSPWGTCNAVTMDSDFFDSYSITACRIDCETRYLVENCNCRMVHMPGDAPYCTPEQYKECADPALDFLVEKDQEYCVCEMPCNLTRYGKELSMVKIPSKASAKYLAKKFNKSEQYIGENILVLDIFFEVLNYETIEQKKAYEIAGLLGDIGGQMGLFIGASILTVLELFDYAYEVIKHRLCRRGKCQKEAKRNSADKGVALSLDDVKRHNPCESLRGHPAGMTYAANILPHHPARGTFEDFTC
Assay: FACS, 3T3/mASIC1a cells
ASSAY METRIC: binding result

H4H6366P (antibody, human IgG4, V domains shown) VH: EVQLVESGGDLIQPGGSLRLSCIASGFTFRGYAMSWVRQAPGEGLDWVSGISSGGGNTYYADSVKGRFTISRDNSKNTLYLQMNSLRVEDTAVYYCAKDRGGVRDFYYGLDVWGQGTTVTVSS VL: DIQMTQSPSTLSASVGDRVTITCRASQSIYSWLAWYQQKPGKAPKLLIYKASSLESGVPSRFSGSGSGTDFTLTISSLQPDDFTTYYCQQYLSYSRTFGQGTKVEIK : binds
H3M7102N (antibody, V domains shown, Chimeric: human variable, mouse constant domains; H3M prefix marks the Fc, isotype not spelled out) VH: EVQLLASGGGLVQPGGSLRLSCAASGFTFSSFAMSWVRQAPGKGLEWVSGISGSGGSTYYADSVKGRFTISRDNSKNTLYLQMNSLRAEDTAAYYCAKEAYKWQPWGQGIRVTVSS VL: DIQMTQSPSTLSASVGDRVSITCRASQSISSWLAWYQQKPGKAPKLLIYKASNLDSGVPSRFSGSGSGTDFTLTISSLQPDDFATYYCQQYNSYSYTFGQGTKLEIK : binds
H1M6718N (antibody, mouse IgG1, V domains shown) VH: EVQLLESGGGLVQPGGSLRLSCAASGFTFSSFAMSWVRQAPGKGLEWVSGISGSGGGTHYADSVKGRFTISRDNSKNMVYLQMNSLRAEDTAAYYCAKEAYKWQPWGQGTLVTVSS VL: DIQMTQSPSTLSASVGDRVIITCRASQRISSWLAWYQQKPGKAPNLLIYKASILESGVPSRFSGSGSGTEFTLTISSLQPDDFATYYCQQYNSYSYTFGQGTKLEIK : binds
